Biological target: E. coli CsgA (Escherichia coli)
Construct: made in house; host or cells: E. coli NEB 3016 slyD::kan, pET11d
Sequence (P28307 23-151): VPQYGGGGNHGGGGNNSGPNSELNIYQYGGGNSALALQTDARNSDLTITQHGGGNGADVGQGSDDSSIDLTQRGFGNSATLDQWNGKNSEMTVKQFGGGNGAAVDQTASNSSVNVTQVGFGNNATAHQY
Assay: In vitro ThioflavinT assay of CsgA aggregation (CsgA ThT Assay)
Assay type: biochemical
Settings: read-out: CsgA ThT Assay (10 μM CsgA) % Control AUC at 1005 minutes, 25 μM (activity range), CsgA 10 μM, black plates; compound 25 μM; 1005 minutes; class symbol
Property: remaining activity at 25 µM

>>> measurement("Cn1c(=O)c2c(ncn2CCCCCCCN2CC(C(=O)O)n3c(c(-c4cccc(C(F)(F)F)c4)c(Cc4cccc5ccccc45)cc3=O)S2(=O)=O)n(C)c1=O (stereo not shown)")
"> 60%"
>>> measurement("CCCCCN1CC(C(=O)O)n2c(c(-c3cccc(C(F)(F)F)c3)c(Cc3ccc(N)c4ccccc34)cc2=O)S1(=O)=O (stereo not shown)")
"31 to 60%"
>>> measurement("CN1CC(C(=O)O)n2c(c(-c3cccc(C(F)(F)F)c3)c(Cc3cccc4ccccc34)c(NC3CCNCC3)c2=O)S1(=O)=O (stereo not shown)")
"> 60%"
>>> measurement("O=C(O)C1COc2c(-c3cccc(C(F)(F)F)c3)c(Cc3cccc4ccccc34)cc(=O)n21 (stereo not shown)")
"31 to 60%"
>>> measurement("Nc1c(Cc2cccc3ccccc23)c(-c2cccc(C(F)(F)F)c2)c2n(c1=O)C(C(=O)O)CN(CCCCO)S2(=O)=O (stereo not shown)")
"31 to 60%"
>>> measurement("Nc1c(Cc2cccc3ccccc23)c(-c2cccc(C(F)(F)F)c2)c2n(c1=O)C(C(=O)O)CN(CCO)S2(=O)=O (stereo not shown)")
"31 to 60%"
>>> measurement("O=C(O)CCCCN1CC(C(=O)O)n2c(c(-c3cccc(C(F)(F)F)c3)c(Cc3cccc4ccccc34)cc2=O)S1(=O)=O (stereo not shown)")
"> 60%"
>>> measurement("CCc1c(Cc2cccc3ccccc23)c(-c2cccc(C(F)(F)F)c2)c2n(c1=O)C(C(=O)O)CN(C)S2(=O)=O (stereo not shown)")
"11 to 31%"
>>> measurement("Nc1c(Cc2cccc3ccccc23)c(-c2cccc(C(F)(F)F)c2)c2n(c1=O)C(C(=O)O)CN(C[C@H](O)[C@@H](O)[C@H](O)[C@H](O)CO)S2(=O)=O (stereo partly shown)")
"> 60%"
>>> measurement("O=C(O)C1CN(CCCO)S(=O)(=O)c2c(-c3cccc(C(F)(F)F)c3)c(Cc3cccc4ccccc34)cc(=O)n21 (stereo not shown)")
"31 to 60%"
>>> measurement("COc1ccc(CN2C[C@H](C(=O)O)n3c(c(-c4cccc(C(F)(F)F)c4)c(Cc4cccc5ccccc45)cc3=O)S2(=O)=O)cc1 (single isomer, unassigned) [Compound 026b]")
"31 to 60%"
>>> measurement("Cn1c(=O)c2c(ncn2CCCCN2CC(C(=O)O)n3c(c(-c4cccc(C(F)(F)F)c4)c(Cc4cccc5ccccc45)cc3=O)S2(=O)=O)n(C)c1=O (stereo not shown)")
"> 60%"
>>> measurement("CCCN1CC(C(=O)O)n2c(c(-c3cccc(C(F)(F)F)c3)c(Cc3cccc4ccccc34)c(N)c2=O)S1(=O)=O (stereo not shown)")
"31 to 60%"
>>> measurement("O=C(O)c1c(Cc2ccccc2)sc2c(-c3cccc(C(F)(F)F)c3)c(Cc3cccc4ccccc34)cc(=O)n12")
"> 60%"
>>> measurement("Cc1c(Cc2cccc3ccccc23)c(-c2cccc(C(F)(F)F)c2)c2n(c1=O)C(C(=O)O)CN(C)S2(=O)=O (stereo not shown)")
"31 to 60%"
>>> measurement("CCN1CC(C(=O)O)n2c(c(-c3cccc(C(F)(F)F)c3)c(Cc3cccc4ccccc34)cc2=O)S1(=O)=O (racemic) [Compound 015]")
"11 to 31%"
>>> measurement("COC(=O)C1CSc2c(-c3cccc(C(F)(F)F)c3)c(Cc3cccc4ccccc34)cc(=O)n21 (stereo not shown)")
"> 60%"
>>> measurement("O=C(O)C1CN(CCCCO)S(=O)(=O)c2c(-c3cccc(C(F)(F)F)c3)c(Cc3cccc4ccccc34)cc(=O)n21 (stereo not shown)")
"31 to 60%"
>>> measurement("CCCN1CC(C(=O)O)n2c(c(-c3cccc(C(F)(F)F)c3)c(Cc3cccc4ccccc34)c(OCCc3ccccc3)c2=O)S1(=O)=O (stereo not shown)")
"31 to 60%"
>>> measurement("CC1(C)Sc2c(-c3cccc(C(F)(F)F)c3)c(Cc3cccc4ccccc34)nc(=O)n2C1C(=O)O (stereo not shown)")
"> 60%"
>>> measurement("NC(=O)CN1CC(C(=O)O)n2c(c(-c3cccc(C(F)(F)F)c3)c(Cc3cccc4ccccc34)cc2=O)S1(=O)=O (stereo not shown)")
"> 60%"
>>> measurement("CN1CC(C(=O)O)n2c1c(-c1cccc(C(F)(F)F)c1)c(Cc1cccc3ccccc13)c(Br)c2=O (stereo not shown)")
"31 to 60%"
>>> measurement("O=C(O)C1CN(CCCCO)S(=O)(=O)c2c(-c3cccc(C(F)(F)F)c3)c(Cc3cccc4ccccc34)c(NC3CCCC3)c(=O)n21 (stereo not shown)")
"31 to 60%"
>>> measurement("CCc1c(Cc2cccc3ccccc23)c(-c2cccc(C(F)(F)F)c2)c2n(c1=O)C(C(=O)O)CN(C(C)C)S2(=O)=O (stereo not shown)")
"31 to 60%"
>>> measurement("O=C(O)C1CSc2c(-c3cccc(C(F)(F)F)c3)c(Cc3cccc4ccccc34)cc(=O)n21 (racemic) [Compound 011]")
"> 60%"
